For each record, write down the corresponding Averaged Max % Response (±St. Dev.).
- TESTED TARGET: UniProt Q6DWJ6
- TEST NAME: GPR139 Agonist titration / agonist counterscreen assay (calcium detection, HEK-GPR139 cells)
- Type: cell-based
- Design: expressed in transfected cells; host or cells: HEK Aequorin cells, Maxcyte transient transfection
- DETAILS: GPR139 Agonist Activity; activity relative to known control
Give the number; % is assumed, so skip it.

Recorded Averaged Max % Response (±St. Dev.) for O=C(CCCOc1ccc(Cl)cc1Cl)NNC(=O)Cc1ccccc1 , please? 88.62

Recorded Averaged Max % Response (±St. Dev.) for COc1cccc(CNC(=O)Nc2ccc(-c3cn[nH]c3)cc2)c1 , please? 80.15

Recorded Averaged Max % Response (±St. Dev.) for CC(=O)N1CCSc2cc(S(=O)(=O)NC3CCC(C)CC3)ccc21 (stereo not drawn) , please? 62.31

Recorded Averaged Max % Response (±St. Dev.) for O=C(CN1CCN(Cc2ccccc2Cl)C1=O)NC1CCCCCC1 , please? 95.59

Recorded Averaged Max % Response (±St. Dev.) for Cc1ccccc1CN1CCC(O)(c2ccc(Cl)c(C(F)(F)F)c2)CC1 , please? 135.48

Recorded Averaged Max % Response (±St. Dev.) for Cc1ccccc1-c1nnc(CN2CCc3ccccc3C2)o1 , please? 112.85

Recorded Averaged Max % Response (±St. Dev.) for CN1CCC(Oc2cc(-c3cn[nH]c3)ccc2NC(=O)C2COc3ccc(F)cc3C2)C1 (stereo not drawn) , please? 103.42

Recorded Averaged Max % Response (±St. Dev.) for CN(Cc1cccs1)C(=O)CN1C(=O)NC(C)(c2ccc3c(c2)OCO3)C1=O (stereo not drawn) , please? 112.57

Recorded Averaged Max % Response (±St. Dev.) for Cc1cc(CC(=O)N/C=C/c2cccc3ccccc23)n[nH]1 , please? 105.88

* * *

- TESTED TARGET: GPR139 (Homo sapiens, UniProt Q6DWJ6)
- Sequence (Q6DWJ6 whole entry): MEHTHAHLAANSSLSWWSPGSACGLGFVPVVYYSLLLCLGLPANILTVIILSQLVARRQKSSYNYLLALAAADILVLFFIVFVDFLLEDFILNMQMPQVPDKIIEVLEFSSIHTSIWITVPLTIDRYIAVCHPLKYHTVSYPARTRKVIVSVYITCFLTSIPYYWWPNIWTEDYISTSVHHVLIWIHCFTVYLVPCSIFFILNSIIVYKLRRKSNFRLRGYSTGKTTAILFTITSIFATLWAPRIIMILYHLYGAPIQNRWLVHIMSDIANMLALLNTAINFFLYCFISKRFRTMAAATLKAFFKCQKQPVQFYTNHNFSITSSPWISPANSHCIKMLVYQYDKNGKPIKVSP
- TEST NAME: [3H]JNJ-63533054 radioligand competition binding assay on membranes of HEK293T/17 cells
- Set-up: HA signal peptide (HASP) (N); expressed in transfected cells; host or cells: HEK293T/17 cells (membrane preparation)
- DETAILS: 10 μM of the indicated compound; (10 μM) JNJ-63533054 as printed in title
- Protocol: Eighteen compounds were selected for additional study. The compounds were re-synthesized and tested in radioligand binding competition assays for their ability to displace [^3H]-labeled reference agonist JNJ-63533054 on GPR139. […] Competition binding assay: Radioligand binding assay used human GPR139 expressed in HEK293T/17 cells. […] Bound radioactivity was counted on a Hidex 600 liquid scintillation counter. […] Nonspecific binding was determined with 10 μM JNJ-63533054. […]
Respond with criterion met for inhibition at 10 µM values of 60% and above, criterion not met for values below.

Hello, I need to know if Cc1cccc(NC(=O)CCC(=O)OCc2ccc(Br)cc2)c1 has measured inhibition at 10 µM not below 60%. Thanks! criterion not met

Hello, I need to know if COc1ccc(-c2cccc(NS(=O)(=O)c3ccc(I)cc3)c2)nn1 has measured inhibition at 10 µM not below 60%. Thanks! criterion met

Hello, I need to know if CC(=O)Nc1ccc(Sc2ccc(S(=O)(=O)Nc3ccc(C)cc3C)cc2[N+](=O)[O-])cc1 has measured inhibition at 10 µM not below 60%. Thanks! criterion met

Hello, I need to know if CCCOC(=O)c1ccc(NC(=O)CSc2ccccc2)cc1 has measured inhibition at 10 µM not below 60%. Thanks! criterion not met

Hello, I need to know if CC(=O)N1N=C(c2ccc(C)cc2)CC1c1ccccc1Cl (stereo not drawn) has measured inhibition at 10 µM not below 60%. Thanks! criterion not met

Hello, I need to know if COc1ccc(-c2noc(CN3CCCN(c4ccc(F)cc4)CC3)n2)c(OC)c1OC has measured inhibition at 10 µM not below 60%. Thanks! criterion met
